system: Escherichia coli TOP10; assay: shrunken log2 fold change of peptide-encoding DNA abundance (4.5 h post-induction vs induction); higher = less antimicrobial activity (less host growth inhibition); details: time post-induction: 4.5 h; library: site-saturation at positions 5, 18, 19, 20;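 also: peptides expressed intracellularly from a pBAD plasmid library in pooled LB shake-flask culture, induced with 0.3% L-arabinose, DNA abundance read by NGS, three biological replicates, DESeq2 with apeglm shrinkage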
Category key, based on recorded shrunken log2 fold change: low group (below -0.1), middle group (-0.1 to below 0.03), high group (0.03 or more)

Past entries and their recorded results:
biopolymer-sequence: RRIRHRPPRLPRPRPRPYLPPRP
class-label: low group
//
biopolymer-sequence: RRIRDRPPRLPRPRPRPWKRPRP
class-label: middle group
//
biopolymer-sequence: RRIRWRPPRLPRPRPRPKRKPRP
class-label: high group
//
biopolymer-sequence: RRIRMRPPRLPRPRPRPQWFPRP
class-label: middle group
//
biopolymer-sequence: RRIRYRPPRLPRPRPRPNEEPRP
class-label: middle group
//
biopolymer-sequence: RRIRVRPPRLPRPRPRPDVSPRP
class-label: middle group
//
biopolymer-sequence: RRIRIRPPRLPRPRPRPMTGPRP
class-label: low group
//
biopolymer-sequence: RRIRCRPPRLPRPRPRPLVMPRP
class-label: middle group

Prompt: Into which bin does this sequence go? `RRIRSRPPRLPRPRPRPMAQPRP`
Completion: high group

Prompt: Into which bin does this sequence go? `RRIRGRPPRLPRPRPRPIGHPRP`
Completion: high group

Prompt: Into which bin does this sequence go? `RRIRLRPPRLPRPRPRPLGVPRP`
Completion: high group
